assay: Pharmacokinetic assay in SD rats; type: in vivo; conditions: both sexes, Sprague-Dawley, rat, PO 60 mg/kg, plasma, read-out: Residence time MRT
Catalogue of molecules with associated MRT
Reply with just the number (in h).

[[record]]
molecule = "COc1ccc(COc2c(OC)ccc3c2C[C@@H](C(=O)[O-])N(c2nc4ccc(F)cc4o2)C3)nc1.[Na+] [Compound 1]"
property_measured = "MRT"
measured_result = 2.59


Task item: Query (molecule): COc1ccc(COc2c(OC)ccc3c2C[C@@H](C(=O)O)N(c2nc4ccc(F)cc4o2)C3)nc1 [Compound 1m] ; field requested: MRT
Reply: 6.13

---

Catalogue of molecules with associated solubility
experiment: Solubility test; type: physicochemical; settings: aqueous buffer; PBS (pH 7.4)

[[record]]
compound_structure_string = "COc1ccc(COc2c(OC)ccc3c2C[C@@H](C(=O)O)N(c2nc4ccc(F)cc4o2)C3)nc1"
property_measured = "solubility"
measured_result = "150 µg/mL"


Then there is this molecule:
Task item: Query (molecule): `COc1ccc(COc2c(OC)ccc3c2C[C@@H](C(=O)[O-])N(c2nc4ccc(F)cc4o2)C3)nc1.[Na+]` ; field requested: solubility
Reply: 8690 µg/mL
